ASSAY_METHOD_TEXT: qHTS assay to identify small molecule antagonists of the thyroid receptor (TR) signaling pathway - cell viability counter screen (AID 743064); note: nearly all actives have a fitted effect of over 50% in size
CONDITION_DETAILS: GH3.TRE-Luc viability, CellTiter-Fluor, 24 h; series mostly up to 70.3 µM
Records with an inconclusive call do not appear. Activity calls are given as the source filed them. Calls come from the whole dose curve; as a rule, active = well fitted cell-killing curve with a large enough effect in the repeat runs; inconclusive = weak or mixed curves, or effect the other way; inactive = no such curve, though single readings can be large or run the other way.
Outcome codes: active, inactive

[
  {
    "MOLECULE": "CN1C(C(=O)Nc2ccccn2)=C(O)c2sccc2S1(=O)=O",
    "CLASS_ASSIGNMENT": "inactive"
  },
  {
    "MOLECULE": "N#[N+]c1ccc2c(S(=O)(=O)[O-])cccc2c1O",
    "CLASS_ASSIGNMENT": "inactive"
  },
  {
    "MOLECULE": "C[C@@H](CN(C)C)CN1c2ccccc2Sc2ccccc21",
    "CLASS_ASSIGNMENT": "active"
  },
  {
    "MOLECULE": "CC(=O)c1ccc([N+](=O)[O-])cc1",
    "CLASS_ASSIGNMENT": "inactive"
  },
  {
    "MOLECULE": "CC1(CN2CCC(n3c(=O)[nH]c4ccccc43)CC2)OCc2ccccc2-n2cccc21 (configuration not stated)",
    "CLASS_ASSIGNMENT": "active"
  },
  {
    "MOLECULE": "O=c1[nH]ncc2ccccc12",
    "CLASS_ASSIGNMENT": "inactive"
  },
  {
    "MOLECULE": "O=[N+]([O-])c1ccc(Nc2ccc(Nc3ccccc3)c(S(=O)(=O)O)c2)c([N+](=O)[O-])c1",
    "CLASS_ASSIGNMENT": "active"
  },
  {
    "MOLECULE": "O=C(OCC(O)CO)c1ccccc1Nc1ccnc2cc(Cl)ccc12 (configuration not stated)",
    "CLASS_ASSIGNMENT": "inactive"
  },
  {
    "MOLECULE": "CCCCCCCCC(CCCCCC)C(=O)O (configuration not stated)",
    "CLASS_ASSIGNMENT": "inactive"
  },
  {
    "MOLECULE": "CCC(C)COC(=O)CC(C)C (configuration not stated)",
    "CLASS_ASSIGNMENT": "inactive"
  },
  {
    "MOLECULE": "C[C@@H]1CN(CCCn2c3ccccc3c3ccccc32)C[C@H](C)N1",
    "CLASS_ASSIGNMENT": "active"
  },
  {
    "MOLECULE": "NCCNCCO",
    "CLASS_ASSIGNMENT": "inactive"
  },
  {
    "MOLECULE": "CCOC(=O)c1ccc(OCCN2C[C@H](O)[C@@H](O)[C@H](O)[C@H]2CO)cc1",
    "CLASS_ASSIGNMENT": "inactive"
  },
  {
    "MOLECULE": "Cc1cc(C)cc(N)c1",
    "CLASS_ASSIGNMENT": "inactive"
  },
  {
    "MOLECULE": "CCOC(=O)c1ccc(C#Cc2ccc3c(c2)C(C)(C)CCS3)nc1",
    "CLASS_ASSIGNMENT": "inactive"
  },
  {
    "MOLECULE": "CN1CCCC(n2nc(Cc3ccc(Cl)cc3)c3ccccc3c2=O)CC1 (configuration not stated)",
    "CLASS_ASSIGNMENT": "active"
  },
  {
    "MOLECULE": "CN1C[C@H](C(=O)N[C@]2(C)O[C@@]3(O)[C@@H]4CCCN4C(=O)[C@H](Cc4ccccc4)N3C2=O)C[C@@H]2c3cccc4[nH]cc(c34)C[C@H]21",
    "CLASS_ASSIGNMENT": "active"
  },
  {
    "MOLECULE": "COC(=O)CS",
    "CLASS_ASSIGNMENT": "inactive"
  },
  {
    "MOLECULE": "O=C(O)CCCCCCCCCCCBr",
    "CLASS_ASSIGNMENT": "inactive"
  },
  {
    "MOLECULE": "O=C(Cn1ccnc1[N+](=O)[O-])NCCO",
    "CLASS_ASSIGNMENT": "inactive"
  },
  {
    "MOLECULE": "NC(=O)c1ccncc1",
    "CLASS_ASSIGNMENT": "inactive"
  },
  {
    "MOLECULE": "COc1cc(Nc2c(C#N)cnc3cc(OCCCN4CCN(C)CC4)c(OC)cc23)c(Cl)cc1Cl",
    "CLASS_ASSIGNMENT": "active"
  },
  {
    "MOLECULE": "CC(CO)CO",
    "CLASS_ASSIGNMENT": "inactive"
  },
  {
    "MOLECULE": "Cc1cc(=O)c2c(O)c3c(O)cc(=O)c4c3c3c(cc(O)c1c23)C(C)(C)C=4O",
    "CLASS_ASSIGNMENT": "active"
  },
  {
    "MOLECULE": "C[C@@H]1CC(=O)NN=C1c1ccc(NN=C(C#N)C#N)cc1",
    "CLASS_ASSIGNMENT": "active"
  },
  {
    "MOLECULE": "COc1cc(C(=O)NCCCCCC(=O)O)cc(OC)c1OC",
    "CLASS_ASSIGNMENT": "inactive"
  },
  {
    "MOLECULE": "CCOC(C)=O",
    "CLASS_ASSIGNMENT": "inactive"
  },
  {
    "MOLECULE": "COc1ccccc1NC(=O)c1cc2ccccc2cc1O",
    "CLASS_ASSIGNMENT": "inactive"
  },
  {
    "MOLECULE": "CC1=Nc2ccc3ccccc3c2C1(C)C",
    "CLASS_ASSIGNMENT": "inactive"
  },
  {
    "MOLECULE": "O=C(OC(=O)c1ccccc1)c1ccccc1",
    "CLASS_ASSIGNMENT": "inactive"
  },
  {
    "MOLECULE": "CC(C)Nc1cccnc1N1CCN(C(=O)c2cc3cc(NS(C)(=O)=O)ccc3[nH]2)CC1",
    "CLASS_ASSIGNMENT": "inactive"
  },
  {
    "MOLECULE": "Cc1ccc(C(C)(C)O)cc1",
    "CLASS_ASSIGNMENT": "inactive"
  },
  {
    "MOLECULE": "O=c1cc(-c2ccccc2)oc2cc(O)cc(O)c12",
    "CLASS_ASSIGNMENT": "active"
  },
  {
    "MOLECULE": "O=C1c2ccccc2C(=O)c2c(O)c(O)cc(O)c21",
    "CLASS_ASSIGNMENT": "active"
  },
  {
    "MOLECULE": "NC1[C@H]2CN(c3nc4c(cc3F)c(=O)c(C(=O)O)cn4-c3ccc(F)cc3F)C[C@@H]12 (some centres not stated)",
    "CLASS_ASSIGNMENT": "active"
  },
  {
    "MOLECULE": "CC(C)(c1ccccc1)c1ccccc1",
    "CLASS_ASSIGNMENT": "inactive"
  },
  {
    "MOLECULE": "CCC(C)(C)OC",
    "CLASS_ASSIGNMENT": "inactive"
  },
  {
    "MOLECULE": "CC[N+](CC)(CCNC(=O)C(=O)NCC[N+](CC)(CC)Cc1ccccc1Cl)Cc1ccccc1Cl",
    "CLASS_ASSIGNMENT": "inactive"
  },
  {
    "MOLECULE": "c1csc(SSc2cccs2)c1",
    "CLASS_ASSIGNMENT": "inactive"
  },
  {
    "MOLECULE": "CCC1NC(=O)c2cc(S(N)(=O)=O)c(Cl)cc2N1 (configuration not stated)",
    "CLASS_ASSIGNMENT": "inactive"
  },
  {
    "MOLECULE": "CCOc1ccccc1O[C@H](c1ccccc1)[C@H]1CNCCO1",
    "CLASS_ASSIGNMENT": "active"
  },
  {
    "MOLECULE": "CC1(C)O[C@@H]2C[C@H]3[C@@H]4C[C@H](F)C5=CC(=O)C=C[C@]5(C)[C@H]4[C@@H](O)C[C@]3(C)[C@]2(C(=O)CO)O1",
    "CLASS_ASSIGNMENT": "inactive"
  },
  {
    "MOLECULE": "CC(C)(C)C(=O)C(=O)O",
    "CLASS_ASSIGNMENT": "inactive"
  },
  {
    "MOLECULE": "CC[C@]1(O)C[C@H]2CN(CCc3c([nH]c4ccccc34)[C@@](C(=O)OC)(c3cc4c(cc3OC)N(C=O)[C@H]3[C@@](O)(C(=O)OC)[C@H](OC(C)=O)[C@]5(CC)C=CCN6CC[C@]43[C@@H]65)C2)C1",
    "CLASS_ASSIGNMENT": "active"
  },
  {
    "MOLECULE": "C=C(C)CCCC(C)CCO (configuration not stated)",
    "CLASS_ASSIGNMENT": "inactive"
  },
  {
    "MOLECULE": "O=C(/C=C/c1ccc(O)c(O)c1)O[C@@H]1C[C@@](OC(=O)/C=C/c2ccc(O)c(O)c2)(C(=O)O)C[C@@H](O)[C@@H]1O",
    "CLASS_ASSIGNMENT": "inactive"
  },
  {
    "MOLECULE": "Cc1cc(C)c(N)cc1C",
    "CLASS_ASSIGNMENT": "inactive"
  }
]
